- Test Target: human P2X3 receptor (Homo sapiens (Human), UniProt P56373)
- Sequence (P56373 whole entry): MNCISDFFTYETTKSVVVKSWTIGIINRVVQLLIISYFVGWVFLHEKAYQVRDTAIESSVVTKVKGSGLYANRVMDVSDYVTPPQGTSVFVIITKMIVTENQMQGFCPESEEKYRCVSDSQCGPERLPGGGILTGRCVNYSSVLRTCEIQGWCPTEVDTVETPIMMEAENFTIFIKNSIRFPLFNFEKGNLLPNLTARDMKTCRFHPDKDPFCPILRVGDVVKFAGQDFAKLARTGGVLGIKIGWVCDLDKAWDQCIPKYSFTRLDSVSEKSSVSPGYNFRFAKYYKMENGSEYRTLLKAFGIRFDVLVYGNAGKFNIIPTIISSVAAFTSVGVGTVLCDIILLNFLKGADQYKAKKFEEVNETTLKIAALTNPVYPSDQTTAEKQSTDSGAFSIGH
- Procedure Text: Evaluation of human P2X3 receptor inhibitory activity (Fluo-3 calcium fluorescence, FDSS 3000, ATP stimulation);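 note: stimulus was 50 nM ATP with fluorescence followed for 3 min, and the response per well was peak post-ATP fluorescence divided by the reading at measurement start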
- Type: cell-based
- Condition Context: human P2X3 receptor, Test Example 1
This section presents molecules with their documented IC50 values.

Molecule | Test Target | IC50, nM
C[C@@H](Cn1c(=O)[nH]/c(=N\c2ccc(OCC(F)F)cc2)n(Cc2ccc(Cl)cc2)c1=O)C(=O)O [Compound I-0848] | human P2X3 receptor (Homo sapiens (Human), UniProt P56373) | 60
CCOC(=O)CCn1c(=O)[nH]/c(=N\c2ccc3oc(CC)c(C)c3c2)n(Cc2ccc(Cl)cc2)c1=O [Compound I-1503] | human P2X3 receptor (Homo sapiens (Human), UniProt P56373) | 12
COc1cc(/N=c2\[nH]c(=O)n(C)c(=O)n2Cc2ccc(Cl)cc2)ccc1Oc1cccc(C#N)n1 [Compound I-2390] | human P2X3 receptor (Homo sapiens (Human), UniProt P56373) | 7
C[C@@H](C(N)=O)n1c(=O)[nH]/c(=N\c2ccc(Oc3ccon3)cc2)n(Cc2ccc(Cl)cc2)c1=O [Compound I-2501] | human P2X3 receptor (Homo sapiens (Human), UniProt P56373) | 57

Origin of values: patent US9718790B2
